System: 786-0 renal
Assay: NCI tumour cell line growth inhibition, 48 h
reported.metric: GI50

What the record says about CN1C(=O)N(C)C2C1NN=c1s/c(=C\c3ccc(C(F)(F)F)cc3)c(=O)n12 (stereo not given) : GI50 is 3.82 µM

What the record says about O=C1NC(=O)C(N2C(=O)c3ccccc3C2=O)CC1O (stereo not given) : GI50 is > 100 µM

What the record says about O=C1OCC2=C1C(c1ccc(Cl)c(Cl)c1)c1cc3c(cc1N2CCO)OCCO3 (stereo not given) : GI50 is 0.277 µM

What the record says about `O=[N+]([O-])c1ccc(C=Cc2ccccc2)cc1.[C-]#[O+].[C-]#[O+].[C-]#[O+].[Cr]` : GI50 is 3.41 µM

What the record says about `CC(=O)/C=C/c1cn(C(=O)OC(C)(C)C)c2ccc(Br)cc12` : GI50 is 11.8 µM

What the record says about `Cc1ccc(/C=N\NC(=O)c2[nH]c3ccc(F)cc3c2-c2ccccc2)cc1` : GI50 is 0.0387 µM

What the record says about `CN(C)CCCn1c(=O)c2ccccc2c2ccccc21` : GI50 is 12.5 µM

What the record says about `CNCCCNCCCCNCCCN1C(=O)c2ccc3c4c(ccc(c24)C1=O)C(=O)N(CCCNCc1ccccc1OC)C3=O` : GI50 is 3.36 µM

What the record says about COc1ccc2c(c1)N(CCO)C1=C(C(=O)OC1)C2c1cccc(F)c1 (stereo not given) : GI50 is 0.644 µM

What the record says about `Fc1ccc(/C=N/n2c(-c3ccc(F)c(Cl)c3)nn(CNc3ccccc3C(F)(F)F)c2=S)cc1` : GI50 is 75.4 µM

----------
Test system: EKVX NSCLC
Assay: NCI tumour cell line growth inhibition, 48 h
Where a SMILES comes first, the peptide text is derived from it. [ ]: non-standard residue; d: D form. The star is where a group is joined. NMeV = CN[C@H](C(=O)O)C(C)C; X29 = COc1ccc(CN*)c(OC)c1; Octanoyl = CCCCCCCC(=O)*; dNMeA = CN[C@H](C)C(=O)O
reported.metric: TGI

What the record says about COC(=O)[C@@H]1[C@H](OC(C)=O)CCC2[C@@]3(C[C@@H](c4ccoc4)O[C@@H]3OC)[C@H](C)CC[C@]21C(=O)OC (stereo partly drawn) : TGI is > 25 µM

What the record says about `COc1ccc(-c2cc(Cc3cccs3)c(=O)[nH]n2)cc1` : TGI is > 100 µM

What the record says about `O=S(=O)(c1ccc(Cl)cc1)C(Cl)(Cl)Cl` : TGI is > 21.4 µM

What the record says about CCCCCCCC(=O)N[C@H](C(=O)N[C@H](C(=O)N(C)[C@H](C(=O)N1CCC[C@H]1C(=O)N(C)[C@H](C)C(=O)NCc1ccc(OC)cc1OC)C(C)C)C(C)C)C(C)C (Octanoyl-VV[NMeV]P[dNMeA]-X29) : TGI is 97.3 µM

What the record says about `O=C(O)CN1CCN(CC(=O)O)CC(=O)[O][Hg][O]C(=O)C1` : TGI is 41.5 µM

What the record says about `Cn1c(=O)c2[nH]c(CCNC(=O)c3ccccc3)nc2n(C)c1=O` : TGI is > 100 µM

What the record says about `O=C(Nc1ccc(OCc2nnc(-c3ccc(Cl)cc3)o2)c(F)c1)Nc1ccc(Cl)c(C(F)(F)F)c1` : TGI is 10.4 µM

What the record says about `Cc1cc(S(=O)(=O)Nc2nc3ccccc3nc2-c2cccc([N+](=O)[O-])c2)c(S)cc1Cl` : TGI is 54.4 µM
